Cited source: patent US9725518B2

# target_entity: T1, N1 binding to cell surface expressed hJ1 (Homo sapiens, UniProt P78504)
# T1 construct: cell expressed full length human J1 (hJ1; HEK293 transfectants); expressed in transfected cells; host or cells: HEK293
# test: Notch binding blocking assay (FACS): N1 EGF11-13 beads staining human J1-expressing cells
# assay_conditions: final antibody concentration 0.4 μg/ml
outcome_measure: Blocking of Notch1 binding to cell surface Jagged 1

J1-183D variant 16: humanised/de-immunised J1-183D: J1-183D_VL_4 + J1-183D_VH_4 (antibody, V domains shown) VH: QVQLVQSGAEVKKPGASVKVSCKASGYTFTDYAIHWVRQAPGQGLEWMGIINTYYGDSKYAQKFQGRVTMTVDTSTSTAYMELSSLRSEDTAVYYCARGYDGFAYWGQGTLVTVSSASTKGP VL: DIQMTQSPSSLSASVGDRVTITCRTSENIYSYLTWYQQKPGKAPKLLIYHAKILDSGVPSRFSGSGSGTDFTLTISSLQPEDFATYYCQHHYDIPWTFGGGTKLEIKRT	+ (Complete blocking)
J1-65D variant 3: humanised/de-immunised J1-65D: J1-65D_VL_1 + J1-65D_VH_3 (antibody, V domains shown) VH: QVQLVQSGAEVKKPGSSVKVSCKASGYTFTDYEMHWVRQAPGQGLEWMGAIQPGGGGTAYAQKFQGRVTLTADKSTSTAYMELSSLRSEDTAVYYCTRRGYDDYPFAYWGQGTLVTVSSASTKGP VL: DIQMTQSPSSLSASVGDRVTITCRASGNIHNYLAWYQQKPGKAPKLLIYNAKTLADDVPSRFSGSGSGTDYTLTISSLQPEDFATYYCQHFWSAPWTFGGGTKLEIKRT	+ (Complete blocking)
